assay: Half life in rat liver microsomes; type: ADME
recorded metric: half-life (min)

>>> meas_value("CC(=O)N1CCC(N2C(=O)C(C)(C)c3cnc(Nc4ccccc4)nc32)CC1")
38
>>> meas_value("CC[C@H](C)N1C(=O)C2(CC2)c2cnc(Nc3cccnc3)nc21")
25
>>> meas_value("CC[C@H](C)N1C(=O)C(C)(C)c2cnc(Nc3ccc(S(C)(=O)=O)cc3)nc21")
26
>>> meas_value("CC[C@H](C)N1C(=O)C(C)(C)c2cnc(Nc3ccc(-c4nnc(C)[nH]4)cc3)nc21")
50

====

Consider the following compounds and their measured log10(Vd) readings.
assay: Volume of distribution in rat; type: ADME; conditions: in vivo
recorded metric: log10(Vd) (log10 of the value in L/kg)

>>> meas_value("CC(=O)N1CCC(N2C(=O)C(C)(C)c3cnc(Nc4cccnc4)nc32)CC1")
0.15
>>> meas_value("CC[C@H](C)N1C(=O)C2(CC2)c2cnc(Nc3cccnc3)nc21")
0.46
>>> meas_value("CC[C@H](C)N1C(=O)C(C)(C)c2cnc(Nc3cccnc3)nc21")
0.72
>>> meas_value("CC[C@H](C)N1C(=O)C(C)(C)c2cnc(Nc3ccc(CNC4CCCOC4)cc3)nc21 (stereo not given in full)")
1.98
>>> meas_value("CC(=O)N1CCC(N2C(=O)C(C)(C)c3cnc(Nc4ccc(F)cc4)nc32)CC1")
0.20

====

Consider the following compounds and their measured clearance readings.
test: Total plasma clearance in rat; type: ADME, cell-free
recorded metric: clearance

>>> meas_value("CC[C@H](C)N1C(=O)C(C)(C)c2cnc(Nc3ccc(S(C)(=O)=O)cc3)nc21")
"84 mL/min/kg"
>>> meas_value("CC[C@H](C)N1C(=O)C(C)(C)c2cnc(Nc3ccc(CN4CC(C)OC(C)C4)cc3)nc21 (stereo partly specified)")
"269 mL/min/kg"
>>> meas_value("CC(=O)N1CCC(N2C(=O)C(C)(C)c3cnc(Nc4ccc(F)cc4)nc32)CC1")
"37 mL/min/kg"
>>> meas_value("CC[C@H](C)N1C(=O)C(C)(C)c2cnc(Nc3ccc(CN4CCC(=O)N(C)CC4)cc3)nc21")
"135 mL/min/kg"
>>> meas_value("CC(=O)N1CCC(N2C(=O)C(C)(C)c3cnc(Nc4ccccc4)nc32)CC1")
"37 mL/min/kg"
>>> meas_value("CC[C@H](C)N1C(=O)C(C)(C)c2cnc(Nc3ccc(CN4CCN(C)CC4)cc3)nc21")
"65 mL/min/kg"
>>> meas_value("CC[C@H](C)N1C(=O)C2(CC2)c2cnc(Nc3cccnc3)nc21")
"81 mL/min/kg"
>>> meas_value("C[C@@H](c1ccc(F)cc1)N1C(=O)C(C)(C)c2cnc(Nc3cccnc3)nc21")
"154 mL/min/kg"
>>> meas_value("CC1(C)C(=O)N(C2CCCCC2)c2nc(Nc3cccnc3)ncc21")
"47 mL/min/kg"
>>> meas_value("CC[C@H](C)N1C(=O)C(C)(C)c2cnc(Nc3ccc(CNC4CCCOC4)cc3)nc21 (stereo partly specified)")
"188 mL/min/kg"
>>> meas_value("CC(=O)N1CCC(N2C(=O)C(C)(C)c3cnc(Nc4cccnc4)nc32)CC1")
"11 mL/min/kg"

====

assay: Drug excretion in bile duct-cannulated rat bile after 8 hrs by chromatographic analysis; type: ADME, tissue-based; conditions: read-out: Drug excretion
recorded metric: dose excreted at 8 h

>>> meas_value("[3H]c1nc(Nc2cccnc2)nc2c1C(C)(C)C(=O)N2[C@H](C)CC")
"> 95%"
